assay: Soluble aggregates of transiently expressed antibodies; assay type: physicochemical; conditions: Protein A purified antibody
readoutType: % soluble aggregate (%)
One number for each entry, in %.

Challenge: Retrieve % soluble aggregate measured for J1-183D variant 4: humanised/de-immunised J1-183D: J1-183D_VL_1 + J1-183D_VH_4 (antibody, V domains shown) VH: QVQLVQSGAEVKKPGASVKVSCKASGYTFTDYAIHWVRQAPGQGLEWMGIINTYYGDSKYAQKFQGRVTMTVDTSTSTAYMELSSLRSEDTAVYYCARGYDGFAYWGQGTLVTVSSASTKGP VL: DIQMTQSPSSLSASVGDRVTITCRTSENIYSYLTWYQQKPGKAPKLLVYNAKILAAGVPSRFSGSGSGTDFTLTISSLQPEDFATYYCQHHYDIPWTFGGGTKLEIKRT and print it.
Response given: 0.85
